System: HIV-2 strain (ROD)
procedure-summary: Anti-HIV-2
Type: cell-based
condition-details: Human immunodeficiency virus 2, MT4, read-out: EC50 ROD
Consider the following molecules; for each one, report its pEC50.
One number for each entry, as −log10 of the molar value.

# annotated cases, reported pEC50 shown
molecule: Cc1cc(-c2cccc(C#N)c2)cc(C)c1Oc1nc(NC2CCN(Cc3ccc(S(N)(=O)=O)cc3)CC2)nc2ccsc12 [Compound 27]
parameter: pEC50
reported-value: 5.31
--
molecule: Cc1cc(-c2ccco2)cc(C)c1Oc1nc(NC2CCN(Cc3ccc(C(N)=O)cc3)CC2)nc2ccsc12 [Compound 12]
parameter: pEC50
reported-value: 4.60
--
molecule: Cc1cc(-c2ccc(C#N)cc2)cc(C)c1Oc1nc(NC2CCN(Cc3ccc(S(N)(=O)=O)cc3)CC2)nc2ccsc12 [Compound 25]
parameter: pEC50
reported-value: 5.25

Consider the following items and state reported pEC50 for each.
1. Cc1cc(-c2ccoc2)cc(C)c1Oc1nc(NC2CCN(Cc3ccc(S(N)(=O)=O)cc3)CC2)nc2ccsc12 [Compound 13]
2. COc1ccc(-c2cc(C)c(Oc3nc(NC4CCN(Cc5ccc(C(N)=O)cc5)CC4)nc4ccsc34)c(C)c2)cc1 [Compound 22]
3. Cc1cc(-c2ccc(F)cc2)cc(C)c1Oc1nc(NC2CCN(Cc3ccc(S(N)(=O)=O)cc3)CC2)nc2ccsc12 [Compound 23]
4. Cc1cc(-c2ccoc2)cc(C)c1Oc1nc(NC2CCN(Cc3ccc(C(N)=O)cc3)CC2)nc2ccsc12 [Compound 14]
5. Cc1cc(-c2ccccc2)cc(C)c1Oc1nc(NC2CCN(Cc3ccc(S(N)(=O)=O)cc3)CC2)nc2ccsc12 [Compound 19]

Key:
5.17
5.30
5.48
5.50
5.21
